# TEST TARGET: UniProt:P28223
# Sequence (P28223 whole entry): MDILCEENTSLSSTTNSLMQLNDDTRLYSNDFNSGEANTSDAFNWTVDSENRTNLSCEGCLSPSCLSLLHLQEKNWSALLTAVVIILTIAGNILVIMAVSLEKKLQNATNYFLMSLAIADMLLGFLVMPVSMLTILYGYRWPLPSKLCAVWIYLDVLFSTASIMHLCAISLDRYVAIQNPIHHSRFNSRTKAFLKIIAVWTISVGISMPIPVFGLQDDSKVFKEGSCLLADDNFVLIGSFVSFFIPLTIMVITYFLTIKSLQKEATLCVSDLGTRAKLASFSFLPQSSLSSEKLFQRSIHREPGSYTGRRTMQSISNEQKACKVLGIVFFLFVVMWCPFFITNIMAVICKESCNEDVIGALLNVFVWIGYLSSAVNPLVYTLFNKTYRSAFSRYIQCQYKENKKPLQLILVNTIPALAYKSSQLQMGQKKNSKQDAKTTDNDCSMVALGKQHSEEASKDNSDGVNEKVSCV
# ASSAY METHOD TEXT: 5-HT2A receptor radioligand binding ([3H]ketanserin)
# TEST PARAMETERS: HEK293 stable cell line, 1 nM [3H]ketanserin; read-out: 5-HT2A Ki (nM) ([3H]Ketanserin)
MEASURED ATTRIBUTE: Ki (nM)
Write down the numeric answer in nM and omit the unit.

Request: // fetch Ki given entry CC(C)n1cc(CCN(C)C)c2c(O)cc(F)cc21 [Compound 10]
Response: 1190

----------
# TEST TARGET: 5-HT2C receptor (Homo sapiens)
# Sequence (P28335 33-458): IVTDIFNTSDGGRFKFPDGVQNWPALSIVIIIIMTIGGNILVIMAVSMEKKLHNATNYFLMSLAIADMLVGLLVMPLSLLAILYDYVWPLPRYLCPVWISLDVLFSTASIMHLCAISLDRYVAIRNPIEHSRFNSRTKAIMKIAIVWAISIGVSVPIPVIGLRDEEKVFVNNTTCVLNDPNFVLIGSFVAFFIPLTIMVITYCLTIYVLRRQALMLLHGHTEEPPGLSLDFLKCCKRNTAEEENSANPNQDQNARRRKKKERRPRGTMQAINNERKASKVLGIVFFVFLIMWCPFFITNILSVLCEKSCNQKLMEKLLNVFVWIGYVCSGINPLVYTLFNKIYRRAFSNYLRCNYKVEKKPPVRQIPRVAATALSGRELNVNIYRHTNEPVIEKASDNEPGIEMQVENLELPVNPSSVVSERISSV
# ASSAY METHOD TEXT: cell-based
# Assay type: cell-based
# TEST PARAMETERS: Ca2+ flux, max dose
5-HT2C % Act @ Max Dose below 70% gives Not fulfilled; 5-HT2C % Act @ Max Dose at or above it gives Fulfilled.

Request: Could you please find out whether CCCN(CC)CCc1c[nH]c2ccccc12 [EPT, N-ethyl-N-propyltryptamine, reference compound] has 5-HT2C % Act @ Max Dose that meets 70% or exceeds it?
Response: Fulfilled

Request: Determine whether measured 5-HT2C % Act @ Max Dose meets or exceeds 70% for CC(C)n1cc(CCN(C)C)c2c(O)cc(F)cc21 [Compound 10]
Response: Not fulfilled

Request: Tell me whether 5-HT2C % Act @ Max Dose is at least 70% here: CCN(C)CCc1c[nH]c2cccc(O)c12 [Compound 4-HO-MET, reference compound]
Response: Fulfilled

Request: Exam item: decide whether the reported 5-HT2C % Act @ Max Dose for CNCCc1cn(C(C)C)c2cc(F)cc(O)c12 [Compound 12] is at least 70%.
Response: Not fulfilled

Request: Decide: 5-HT2C % Act @ Max Dose of CCNCCc1c[nH]c2ccc(F)c(O)c12 [Compound 28] >= 70%?
Response: Fulfilled

Request: Decide: is the reported value of 5-HT2C % Act @ Max Dose for CN(C)CCc1c[nH]c2ccc(F)cc12 [Compound 5-F-DMT, reference compound] equal to or greater than 70%?
Response: Fulfilled

Request: For this compound, is measured 5-HT2C % Act @ Max Dose 70% or higher? CC(C)NCCc1c[nH]c2ccc(F)c(O)c12 [Compound 35]
Response: Fulfilled

----------
Please go through the items and note down their t1/2.
# Tested on: monoamine oxidase A and B (MAO-A and MAO-B)
# ASSAY METHOD TEXT: Stability in the presence of monoamine oxidases (human liver mitochondria preparation)
# TEST PARAMETERS: human liver mitochondria 0.30 mg protein/mL, 37° C.
Give the number; min is assumed, so skip it.

Request: State its t1/2: COc1ccc2[nH]cc(CCN(C)C)c2c1 [Compound 5-MeO-DMT, reference compound]
Response: 52.9

Request: Entry CN(C)CCc1c[nH]c2ccccc12 [DMT, N,N-dimethyltryptamine, reference compound] needs its t1/2 filled in; supply it.
Response: 17.1

Request: Identify t1/2 associated with the compound CN(C)CCc1c[nH]c2ccc(F)cc12 [Compound 5-F-DMT, reference compound]
Response: 8.7

----------
Give measured Ki for each item. Keep answers brief.
# TEST TARGET: UniProt P28335
# ASSAY METHOD TEXT: 5-HT2C receptor radioligand binding ([3H]mesulergine)
# TEST PARAMETERS: HEK293 stable cell line, 2 nM [3H]mesulergine
State just the number; it will be interpreted in nM.

Request: Input `CNCCc1cn(C(C)C)c2cc(F)cc(O)c12` , output reported Ki.
Response: 30.8

Request: Tell us which Ki value is on record for `CC(C)n1cc(CCN(C)C)c2c(O)cc(F)cc21`
Response: 10.5

Recorded values, source patent US20260234107A1.
